Assay: chemical genetic growth profiling, strain panel (AID 1159580);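 note: tested at 20 µM; growth read once vehicle control cultures reached saturation at 30 °C; 1 = growth at the plate median or of vehicle wells; lower values mean less growth of the strain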
Details: S. cerevisiae deletion strains, growth OD, locus YBR023C, strain chs3, active compounds read low
The campaign covered roughly 5,500 compounds. About 2,000 (36%) were called active. Roughly 18% stayed inconclusive and do not appear here. Some of the results follow. Where a SMILES comes first, the peptide text is derived from it. Bridges are numbered along the chain shown (N, C = ends). [ ]: non-standard residue; d: D form. The star is where a group is joined. Octanoyl(6-Me) = CCC(C)CCCCC(=O)*; Dab = NCC[CH](N)C(=O)O
observationType: normalized growth
Enter a number only.

Some entries whose results are on file:
compound=O=C1c2ccccc2C(=O)C1c1ccccc1 quantitativeresult=1
compound="CCC(C)CCCCC(=O)NC(CCN)C(=O)NC(C(=O)NC(CCN)C(=O)NC1CCNC(=O)C(C(C)O)NC(=O)C(CCN)NC(=O)C(CCN)NC(=O)C(CC(C)C)NC(=O)C(Cc2ccccc2)NC(=O)C(CCN)NC1=O)C(C)O (centres undefined) ({Octanoyl(6-Me)}-[Dab]T[Dab][Dab][Dab]FL[Dab][Dab]T; lactam 4-C; configuration not given here)" quantitativeresult=0.99
compound=O=C(O)[C@H](O)[C@@](O)(Cc1ccc(O)cc1)C(=O)O quantitativeresult=1.02
compound=CC(=O)[O][Hg][c]1ccccc1 quantitativeresult=0.0614
compound=CCOc1ccc(C(=O)c2ccc(OC)c(O)c2O)cc1 quantitativeresult=0.977

// recorded normalized growth for COc1ccc(-c2oc3ccccc3c(=O)c2O)cc1OC : 0.587

---

Measured normalized growth, listed per entry for reference.
Assay: chemical genetic growth profiling, strain panel (AID 1159580)
Settings: S. cerevisiae deletion strains, growth OD, locus YDR101C, strain arx1, active compounds read low
Hit rate of the full screen: of about 5,500 compounds, about 2,000 (36%) were called active. Roughly 18% stayed inconclusive and do not appear here. The list shows a part of the results.
The reply should be a number, written without any unit.

Answered examples (2):
molecule="CC(=O)O[C@H]1CC[C@]2(C)C3CC[C@@]4(C)C(CC5O[C@@]6(CCC(C)CO6)[C@@H](C)C54)C3CC[C@H]2C1 (stereo partly drawn)" quantitativeresult=0.983
molecule="CC(=O)O[C@H]1CC[C@]2(C)C3CC(=O)[C@]4(C)C(C(C)=O)=CCC4C3CC[C@H]2C1 (stereo partly drawn)" quantitativeresult=0.988

The recorded normalized growth for entry C=C(C)[C@@H]1CC[C@]2(CO)CC[C@]3(C)[C@H](CCC4[C@@]5(C)CC[C@H](O)C(C)(C)C5CC[C@]43C)C12 (stereo partly drawn) equals 0.977

Consider CC(=O)OCC(=O)[C@@]1(O)CCC2C3CC[C@@H]4C[C@H](OC(C)=O)CC[C@]4(C)C3C(=O)C[C@@]21C (stereo partly drawn) . Its measured normalized growth is 1.01

Noted for CC(=O)O[C@@H]1CC[C@]2(C)C3CC[C@]4(C)C(=O)CCC4C3CC[C@H]2C1 (stereo partly drawn) : its normalized growth reads 0.995

Entry under test: CC(=O)O[C@H]1CC[C@]2(C)C3CC[C@@]4(C)C(CC5O[C@@]6(CCC(C)CO6)[C@@H](C)C54)C3CC[C@@H]2C1 (stereo partly drawn) . Its normalized growth was 0.992

For record CN1CCN(CC(=O)N2c3ccccc3C(=O)Nc3cccnc32)CC1 the listed normalized growth is 1

// recorded normalized growth for CC(=O)OC1CCC2(C)C3CC(=O)C4(C)C(CC5OC6(CCC(C)CO6)[C@@H](C)C54)C3CC[C@H]2C1 (stereo partly drawn) : 1

---

Assay: chemical genetic growth profiling, strain panel (AID 1159580)
Conditions: S. cerevisiae deletion strains, growth OD, locus YDL074C, strain BRE1, active compounds read low
The campaign covered roughly 5,500 compounds. About 2,000 (36%) were called active. Inconclusive results (about 18%) are left out. Some of the results follow.
observationType: normalized growth

Solved cases below.
molecule="CC(=O)OC1CCC2(C)C3CC(=O)C4(C)C(CC5OC6(CCC(C)CO6)[C@@H](C)C54)C3CC[C@H]2C1 (stereo not given in full)" result="0.983 (inactive)"
molecule=COc1cc(-c2oc3cc(O)ccc3c(=O)c2O)cc(OC)c1OC result="0.996 (inactive)"
molecule=CC(=O)c1cc2c(cc1O)OC(C)(C)C=C2 result="0.974 (inactive)"
molecule=O=c1c(O)c(-c2ccc(O)c(O)c2)oc2cc(O)ccc12 result="0.742 (active)"

Record CC(=O)O[C@H]1CC[C@]2(C)C3CC[C@@]4(C)C(CC5O[C@@]6(CCC(C)CO6)[C@@H](C)C54)C3CC[C@@H]2C1 (stereo not given in full) , field normalized growth: 1.02 (inactive)

---

Test: chemical genetic growth profiling, strain panel (AID 1159580);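 note: tested at 20 µM; growth read once vehicle control cultures reached saturation at 30 °C; 1 = growth at the plate median or of vehicle wells; lower values mean less growth of the strain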
Settings: S. cerevisiae deletion strains, growth OD, locus YEL061C, strain CIN8, active compounds read low
The campaign covered roughly 5,500 compounds. About 2,000 (36%) were called active. Not shown: some 18% with an inconclusive outcome. The list shows a part of the results.
observationType: normalized growth
Reply with just the number.

Record CC(=O)[C@@]1(O)CCC2C3CCC4=CC(=O)CC[C@]4(C)C3CC[C@@]21C (some centres not stated) . Reported normalized growth: 0.995

The compound listed as Cc1ccc(OCc2nnc(SCC(=O)c3ccc(F)cc3)n2-c2ccccc2)c2c1CCC2 shows normalized growth equal to 0.982

normalized growth for C=C(C)[C@H]1Cc2c(ccc3c2O[C@@H]2COc4cc(OC)c(OC)cc4[C@@H]2C3=O)O1 is 1

Please fill in: normalized growth reported for CC1=NN(c2cccc(S(N)(=O)=O)c2)C(=O)C1 = 1

Notebook: CC[C@H]1CN2CCc3cc(OC)c(OC)cc3C2C[C@@H]1CC1NCCc2cc(OC)c(OC)cc21 (some centres not stated) , normalized growth read as 1.01

Short answer for CCOc1ccc(C(=O)c2ccc(O)c(O)c2O)cc1 : normalized growth was 0.901

Reported normalized growth ( CC(=O)OCC(=O)[C@@]12OC3(CCCC3)O[C@@H]1CC1C3CCC4=CC(=O)C=C[C@]4(C)[C@@]3(F)[C@@H](O)C[C@@]12C (some centres not stated) ) = 1.01

Just so you know, measured normalized growth for C=C(C)[C@@H]1CC[C@]2(CO)CC[C@]3(C)[C@H](CCC4[C@@]5(C)CC[C@H](O)C(C)(C)C5CC[C@]43C)C12 (some centres not stated) came out at 1.02

Entry under test: COc1cccc(OC)c1C(=O)N[C@@H]1C(=O)N2[C@@H]1SC(C)(C)[C@@H]2C(=O)O . Its normalized growth was 0.986

Short answer for CC1(C)C(=O)[C@@H]2C[C@@]3(O)C4=CC(=O)O[C@@H](c5ccoc5)[C@]4(C)CCC3[C@@](C)(C2=O)[C@H]1CC(=O)O (some centres not stated) : normalized growth was 1

---

Assay: chemical genetic growth profiling, strain panel (AID 1159580);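 note: tested at 20 µM; growth read once vehicle control cultures reached saturation at 30 °C; 1 = growth at the plate median or of vehicle wells; lower values mean less growth of the strain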
Conditions: S. cerevisiae deletion strains, growth OD, locus YLR027C, strain aat2, active compounds read low
In all, about 5,500 compounds went through this assay and about 2,000 (36%) were called active. Roughly 18% stayed inconclusive and do not appear here. The list shows a part of the results.
Reported normalized growth by item:

Some compounds with recorded normalized growth:
compound="CC(NCCC(c1ccccc1)c1ccccc1)c1ccccc1 (stereo unspecified)" result="0.934 (inactive)"
compound="CC(=O)OCC(=O)[C@@]12OC3(CCCC3)O[C@@H]1CC1C3CCC4=CC(=O)C=C[C@]4(C)[C@@]3(F)[C@@H](O)C[C@@]12C (stereo partly specified)" result="1.01 (inactive)"
compound=CN1CCN(CC(=O)N2c3ccccc3C(=O)Nc3cccnc32)CC1 result="1 (inactive)"

Sure, the documented normalized growth for C1CCC(C(CC2CCCCN2)C2CCCCC2)CC1 (stereo unspecified) is 0.977 (inactive)

Entry COc1cc2cc3c4cc(OC)c(OC)cc4cc[n+]3c(C)c2cc1OC , normalized growth reported as 1.03 (inactive)

Lookup result for CNCC[C@@H](Oc1ccccc1)c1ccccc1 ; measured normalized growth: 0.962 (inactive)

---

Assay: chemical genetic growth profiling, strain panel (AID 1159580);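 note: tested at 20 µM; growth read once vehicle control cultures reached saturation at 30 °C; 1 = growth at the plate median or of vehicle wells; lower values mean less growth of the strain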
Conditions: S. cerevisiae deletion strains, growth OD, locus YFR010W, strain ubp6, active compounds read low
Hit rate of the full screen: of about 5,500 compounds, about 2,000 (36%) were called active. Not shown: some 18% with an inconclusive outcome. The list shows a part of the results.
Entries and their normalized growth values follow.
Write no unit; give the number alone.

Short answer for CCN(CC)CCNC(=O)c1cc(Cl)c(N)cc1OC : normalized growth was 0.969

For reference, reported normalized growth for COc1cc(NS(=O)(=O)c2ccc(N)cc2)ncn1 stands at 0.97

Record CC(=O)CC1CCCCN1 (stereo not drawn) . Reported normalized growth: 1.01

// sample C#CC1(O)CCC2C3CCC4=CC(=O)CCC4(C)C3CCC21C (stereo not drawn) , its normalized growth was 0.995

Value of measured normalized growth for the entry CCCc1nc2c(C)cc(-c3nc4ccccc4n3C)cc2n1Cc1ccc(-c2ccccc2C(=O)O)cc1 : 1.03

In plain terms, CC1(C)C(=O)[C@@H]2C[C@@]3(O)C4=CC(=O)O[C@@H](c5ccoc5)[C@]4(C)CCC3[C@@](C)(C2=O)[C@H]1CC(=O)O (stereo partly drawn) has a documented normalized growth of 1.01

Recorded normalized growth (molecule O=C(CCBr)N1CCN(C(=O)CCBr)CC1 ): 1.01

normalized growth measured on O=C(NC1CCCCC1)NC1CCCCC1 = 0.988

Consider CCOC([O-])=Nc1c[n+](N2CCOCC2)no1 . Its measured normalized growth is 0.986

The recorded normalized growth for entry CNCC[C@@H](Oc1ccccc1)c1ccccc1 equals 0.964
